Data provenance: patent US9474758B2

# Target under test: Human TRPA1 expressing CHO cells (Homo sapiens)
# Construct: expressed in transfected cells; host or cells: CHO cells (G-418 selection)
# Sequence (O75762 whole entry): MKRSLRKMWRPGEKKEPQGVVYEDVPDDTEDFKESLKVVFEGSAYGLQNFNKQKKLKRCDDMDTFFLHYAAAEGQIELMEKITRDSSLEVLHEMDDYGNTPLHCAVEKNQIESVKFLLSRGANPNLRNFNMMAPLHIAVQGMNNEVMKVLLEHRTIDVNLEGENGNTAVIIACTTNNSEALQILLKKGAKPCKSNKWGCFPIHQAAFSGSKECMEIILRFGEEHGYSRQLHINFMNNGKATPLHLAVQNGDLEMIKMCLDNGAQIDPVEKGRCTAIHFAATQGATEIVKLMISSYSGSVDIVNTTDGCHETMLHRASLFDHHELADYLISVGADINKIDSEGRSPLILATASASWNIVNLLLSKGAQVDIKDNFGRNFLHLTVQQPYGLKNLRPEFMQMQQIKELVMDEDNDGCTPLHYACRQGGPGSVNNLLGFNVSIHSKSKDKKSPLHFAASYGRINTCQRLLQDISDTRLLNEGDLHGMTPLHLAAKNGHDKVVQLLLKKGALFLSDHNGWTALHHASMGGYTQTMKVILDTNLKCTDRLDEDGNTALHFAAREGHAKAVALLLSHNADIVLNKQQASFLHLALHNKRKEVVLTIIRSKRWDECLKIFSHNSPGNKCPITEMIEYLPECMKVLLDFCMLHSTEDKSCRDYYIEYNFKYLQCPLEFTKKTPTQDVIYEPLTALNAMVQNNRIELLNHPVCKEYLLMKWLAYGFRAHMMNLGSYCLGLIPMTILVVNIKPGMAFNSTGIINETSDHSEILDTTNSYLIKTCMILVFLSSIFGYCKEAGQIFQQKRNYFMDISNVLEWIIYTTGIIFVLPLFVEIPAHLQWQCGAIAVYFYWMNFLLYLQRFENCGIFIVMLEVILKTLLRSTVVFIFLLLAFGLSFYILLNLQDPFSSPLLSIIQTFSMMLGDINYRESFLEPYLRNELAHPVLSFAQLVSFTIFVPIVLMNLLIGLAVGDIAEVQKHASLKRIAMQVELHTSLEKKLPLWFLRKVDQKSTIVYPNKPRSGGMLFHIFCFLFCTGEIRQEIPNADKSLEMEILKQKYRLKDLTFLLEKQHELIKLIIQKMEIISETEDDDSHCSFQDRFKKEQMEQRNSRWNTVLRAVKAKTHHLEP
# Assay procedure: 45Calcium uptake assay, inhibition of AITC induced calcium uptake (human)
# Assay type: cell-based
# Conditions: human TRPA1 CHO cells, AITC 30 μM, compound 10.0 μM; read-out: Percentage inhibition at 10.0 μM
# Description: Screening for TRPA1 Antagonist Using the ^45Calcium Uptake Assay: The inhibition of TRPA1 receptor activation was measured as inhibition of allyl isothiocyanate (AITC) induced cellular uptake of radioactive calcium. Test compounds were dissolved in 100% DMSO to prepare 10 mM stock and then diluted using plain medium with 0.1% BSA and 1.8 mM CaCl2 to get the desired concentration. […] Radioactivity in the lysate was measured in a Packard TopCount after addition of liquid scintillant. […]
Measured property: inhibition at 10 µM (%)
Your answer should be a plain number; it is taken to be in %.

// inhibition at 10 µM lookup, compound = Cn1c(=O)c2c(CC(=O)Nc3nc(-c4ccc(C(F)(F)F)cc4F)cs3)scc2n(C)c1=O , result: 99.7

====

# Target under test: Rat TRPA1 expressing CHO cells (Rattus norvegicus, UniProt Q6RI86)
# Construct: expressed in transfected cells; host or cells: CHO cells (Zeocin selection)
# Sequence (Q6RI86 whole entry): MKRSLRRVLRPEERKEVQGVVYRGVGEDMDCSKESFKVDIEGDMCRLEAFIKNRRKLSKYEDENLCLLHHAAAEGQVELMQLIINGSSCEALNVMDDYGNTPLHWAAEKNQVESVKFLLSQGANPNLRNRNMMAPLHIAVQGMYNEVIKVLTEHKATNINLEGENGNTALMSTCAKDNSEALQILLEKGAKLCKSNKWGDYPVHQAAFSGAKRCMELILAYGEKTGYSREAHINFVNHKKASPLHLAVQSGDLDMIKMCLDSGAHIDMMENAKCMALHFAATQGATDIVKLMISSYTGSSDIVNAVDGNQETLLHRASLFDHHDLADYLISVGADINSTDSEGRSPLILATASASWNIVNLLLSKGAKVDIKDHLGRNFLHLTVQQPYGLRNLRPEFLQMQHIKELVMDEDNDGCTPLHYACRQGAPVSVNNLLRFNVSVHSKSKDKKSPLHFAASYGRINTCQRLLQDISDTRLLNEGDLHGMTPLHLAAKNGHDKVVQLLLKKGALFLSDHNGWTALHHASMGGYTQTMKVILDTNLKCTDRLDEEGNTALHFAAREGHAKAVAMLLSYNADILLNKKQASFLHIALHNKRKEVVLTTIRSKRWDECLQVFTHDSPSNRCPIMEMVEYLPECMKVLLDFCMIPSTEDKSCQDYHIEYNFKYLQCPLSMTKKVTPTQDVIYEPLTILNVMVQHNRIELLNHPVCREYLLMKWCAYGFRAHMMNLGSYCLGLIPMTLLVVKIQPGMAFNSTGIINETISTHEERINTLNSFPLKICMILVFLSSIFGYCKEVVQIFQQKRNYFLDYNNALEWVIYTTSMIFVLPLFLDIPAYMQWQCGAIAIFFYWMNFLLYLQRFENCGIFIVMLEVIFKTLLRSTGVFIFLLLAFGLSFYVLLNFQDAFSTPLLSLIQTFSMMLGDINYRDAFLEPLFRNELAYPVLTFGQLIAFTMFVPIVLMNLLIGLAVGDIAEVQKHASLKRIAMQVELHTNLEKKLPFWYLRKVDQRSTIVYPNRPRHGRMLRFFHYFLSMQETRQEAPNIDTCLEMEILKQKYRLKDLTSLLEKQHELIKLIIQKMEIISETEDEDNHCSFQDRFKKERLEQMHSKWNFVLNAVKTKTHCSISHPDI
# Assay procedure: 45Calcium uptake assay, inhibition of AITC induced calcium uptake (rat)
# Assay type: cell-based
# Conditions: rat TRPA1 CHO cells, AITC 10 μM, compound 10.0 μM; read-out: Percentage inhibition at 10.0 μM
# Experimental: Screening for TRPA1 Antagonist Using the ^45Calcium Uptake Assay: The inhibition of TRPA1 receptor activation was measured as inhibition of allyl isothiocyanate (AITC) induced cellular uptake of radioactive calcium. Test compounds were dissolved in 100% DMSO to prepare 10 mM stock and then diluted using plain medium with 0.1% BSA and 1.8 mM CaCl2 to get the desired concentration. […] Radioactivity in the lysate was measured in a Packard TopCount after addition of liquid scintillant. […]
Measured property: inhibition at 10 µM (%)
Enter your answer as a number in %; do not include the unit.

inhibition at 10 µM measured on Cn1c(=O)c2c(CC(=O)Nc3nc(-c4cccc(OC(F)(F)F)c4)cs3)scc2n(C)c1=O = 100

Looking up CC(C)c1sc2c(c1CC(=O)Nc1nc(-c3ccc(C(F)(F)F)c(F)c3)cs1)c(=O)n(C)c(=O)n2C , I found its inhibition at 10 µM recorded as 97

Measured inhibition at 10 µM of Cn1c(=O)c2c(CC(=O)Nc3nc(-c4ccc(OC(F)(F)F)c(F)c4)cs3)csc2n(C)c1=O : 99.8

The compound identified as Cc1sc2c(c1CC(=O)Nc1nc(-c3ccc(F)c(OC(F)(F)F)c3)cs1)c(=O)n(C)c(=O)n2C registered its inhibition at 10 µM at 99.3

Next:
Per the records, this compound ( CCc1sc2c(c1CC(=O)Nc1nc(-c3ccc(F)c(C(F)(F)F)c3F)cs1)c(=O)n(C)c(=O)n2C ) has inhibition at 10 µM equal to 98.8

Kindly note the recorded inhibition at 10 µM for Cn1c(=O)c2c(CC(=O)Nc3nc(-c4ccc(Cl)c(Cl)c4)cs3)csc2n(C)c1=O , which is 100

GET /value?item= Cn1c(=O)c2c(CC(=O)Nc3nc(-c4ccc(Cl)cc4)cs3)scc2n(C)c1=O &field=inhibition at 10 µM returns 94.8
